molecular target: JAK3 (Homo sapiens (Human), UniProt P52333); experiment: Jak Biochemical HTRF Assay (JAK3); settings: recombinant GST-tagged catalytic domain, [ATP] 2.9 μM
Sequence (P52333 822-1111): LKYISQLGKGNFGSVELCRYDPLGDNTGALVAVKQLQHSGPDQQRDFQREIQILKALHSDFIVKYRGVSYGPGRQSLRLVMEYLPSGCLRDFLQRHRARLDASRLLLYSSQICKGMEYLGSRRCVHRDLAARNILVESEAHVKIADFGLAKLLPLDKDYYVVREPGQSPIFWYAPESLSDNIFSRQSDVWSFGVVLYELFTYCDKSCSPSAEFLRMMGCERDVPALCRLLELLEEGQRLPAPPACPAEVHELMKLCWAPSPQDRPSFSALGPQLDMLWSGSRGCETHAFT
Hi! Could you tag entries with IC50 below 0.1 nM as y, and those at or above as n? Much appreciated.

These recorded examples may help you get a feel for the data.
MOLECULE: C=C(CO)C(=O)Nc1cccc(-c2ncnc3[nH]cc(C(=O)OCC)c23)c1 [Example 15-2]
DISCRETE LABEL: y
//
MOLECULE: C=C(C)C(=O)n1ccc2ccc(-c3ncnc4[nH]cc(C(=O)OCC)c34)cc21 [Example 4-23]
DISCRETE LABEL: n
//
MOLECULE: C=C(C)C(=O)Nc1cc(-c2ncnc3[nH]cc(C(=O)OCC)c23)ccc1C(=O)N(C)C [Example 4-28]
DISCRETE LABEL: n
//
MOLECULE: C=CC(=O)Nc1cc(-c2ncnc3[nH]cc(C(=O)OCC)c23)ccc1C [Example 4-11]
DISCRETE LABEL: y
//
MOLECULE: CCOC(=O)c1c[nH]c2ncnc(-c3cc4ccccc4s3)c12 [Example 1-50]
DISCRETE LABEL: n

Quick check: IC50 of C=C(F)C(=O)Nc1cccc(-c2ncnc3[nH]cc(C(=O)OCC)c23)c1 [Example 5-1] under 0.1 nM? y

Is it true that IC50 reported for CCOC(=O)c1c[nH]c2ncnc(-c3ccc(O)cc3)c12 [Example 1-35] is less than 0.1 nM? n

Field: below-cutoff. Rule: recorded IC50 strictly less than 0.1 nM. Subject: CCOC(=O)c1c[nH]c2ncnc(-c3cc4ccccc4o3)c12 [Example 1-54] n

Strictly below 0.1 nM in IC50? CCOC(=O)c1c[nH]c2ncnc(-c3ccc(-c4ccccc4)cc3)c12 [Example 1-44] n

Is IC50 strictly under 0.1 nM for the entry CCOC(=O)c1c[nH]c2ncnc(-c3cccc(F)c3)c12 [Example 1-42] ? n

Consider the molecule C=C(C)C(=O)Nc1cc(-c2ncnc3[nH]cc(C(=O)OCC)c23)ccc1O [Example 4-31] . Is its IC50 strictly less than 0.1 nM? n

Please indicate whether the reported IC50 of CCOC(=O)c1c[nH]c2ncnc(-c3ccc(C)c(N)c3)c12 [Example 1-22] is strictly below 0.1 nM. n

----------
target: JAK3 (Homo sapiens (Human), UniProt P52333); test: Jak Biochemical HTRF Assay (JAK3); details: recombinant GST-tagged catalytic domain, [ATP] 2.9 μM
Quick reference: IC50 of the listed items.
Report as a plain number; the unit nM is understood.

MOLECULE: CCOC(=O)c1c[nH]c2ncnc(-c3ccccc3F)c12 [Example 1-41]
OBS VALUE: 7.5

Look up IC50: C=CC(=O)Nc1cccc(-c2ncnc3[nH]cc(C(=O)OCC)c23)c1C [Example 4-12] 0.19

Name the recorded IC50 for C=C(C)C(=O)Nc1cc(-c2ncnc3[nH]cc(C(=O)OCC)c23)ccc1S(C)(=O)=O [Example 4-29] . 0.087

What value of IC50 has been recorded for this entry: C=C(C)C(=O)Nc1cc(-c2ncnc3[nH]cc(C(=O)OCC)c23)cnc1OC [Example 4-32] 0.68

Report IC50 for CCOC(=O)c1c[nH]c2ncnc(-c3ccccc3)c12 [Example 1-1] please. 5.5

Which IC50 value is on record for C=C(CN(C)C)C(=O)Nc1cccc(-c2ncnc3[nH]cc(C(=O)OCC)c23)c1 [Example 14] ? 0.066

Any idea what its IC50 is? The molecule is CCOC(=O)c1c[nH]c2ncnc(-c3cccc(NC(=O)/C=C/C(C)=O)c3)c12 [Example 5-14] 5.3

Requested field: IC50. Item: C=C(C)C(=O)Nc1cccc(-c2ncnc3[nH]cc(-c4nnc(C)o4)c23)c1 [Example 26] 2.5
